# Measured on: T1, CLDN18.2 endogenously expressed on SNU620 gastric cancer cells (UniProt P56856-2 1-261, limits assumed)
# T1 construct: whole, on cells; also called SU620
# Assay explanation: FACS Exp. 3, SNU620 cells
Assay metric: MFI_SNU620 (@30 ug/ml) (MFI)
Write down the numeric answer in MFI and omit the unit.

Reference set, count: 2
Field MFI_SNU620 (@30 ug/ml) (entry hz282-18 (antibody, V domains shown, humanized IgG; constant regions not specified) VH: QVQLQESGPGLVKPSETLSLTCTVSGFSLTSYNVYWIRQPPGKGLEWIGVIWNTGATRYNSALKSRVTISKDTSKNQVSLKLSSVTAADTAVYYCARDSAMPAIPFAYWGQGTLVTVSS VL: DIVMTQSPSSLSASVGDRVTINCKSSQSLFGSVRQKNYLAWYQQKPGKSPKLLIYLASTRESGVPDRFSGSGSGTDFTLTISSLQPEDFAKYYCQQYYDIPWTFGGGTKVEIK ) reads 1210

Field MFI_SNU620 (@30 ug/ml) (entry hz282-14 (antibody, V domains shown, humanized IgG; constant regions not specified) VH: QVQLQESGPGLVKPSETLSLTCTVSGFSLTSYNVYWIRQPPGKGLEWIGVIWNTGATRYNSALKSRVTISKDTSKNQVSLKLSSVTAADTAVYYCARDSAMPAIPFAYWGQGTLVTVSS VL: DIQMTQSPSSLSASVGDRVTITCKSSQSLFGSVRQKNYLAWYQQKPGKSPKLLIYLASTRESGVPDRFSGSGSGTDFTLTISSLQPEDFAKYYCQQYYDIPWTFGGGTKVEIK ) reads 1220

We next turn to a different binder, shown below.
Field MFI_SNU620 (@30 ug/ml) (entry hz282-4 (antibody, V domains shown, humanized IgG; constant regions not specified) VH: QVQLQESGPGLVKPSETLSLTCTVAGFSLTSYNVYWIRQPPGKGLEWIGVIWNTGATRYNSALKSRVTISKDTSKSQVSLKLSSVTAADTAVYYCARDSAMPAIPFAYWGQGTLVTVSS VL: DIVMTQSPDSLAVSLGERATINCKSSQSLFGSVRQKNYLAWYQQKPGQPPKLLIYLASTRESGVPDRFSGSGSGTDFTLTISSLQAEDVAVYYCQQYYDIPWTFGGGTKVEIK ) reads 1080
